Where do the numbers come from? From PubChem BioAssay.

test: LAP4-GFP expression modulators in yeast, confirmation, cell-based, cherry picks, flow cytometry, mother/daughter gates (AID 2271);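 further: ratio of sample to DMSO plate mean so 100% equals DMSO level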; details: S. cerevisiae LAP4-GFP strain, 3 h, measured here: daughter cell gate response, at 10 µM, stronger effect = higher value, 100 means same as DMSO control
value-type: GFP response relative to DMSO (%)
Lab book: enter the figure in %, no units written.

Recorded results for 3 compounds are shown here.
O=[N+]([O-])c1ccc(Sc2ccccc2Cl)nc1 | 93.6
Cc1cc(NC(=O)c2cncc(Br)c2)ccc1NC(=O)c1cc2ccccc2o1 | 87.9
N#C/C(=C\c1c(N2CCCCC2)nc2ccccn2c1=O)C(=O)NCc1ccco1 | 97.9

For COc1ccc(/C=N/Nc2nc(-c3cccnc3)nc3ccccc23)c(OC)c1 , what is its reported GFP response relative to DMSO? 94.4

For COc1cc(SSc2cc(OC)cc([N+](=O)[O-])c2N)c(N)c([N+](=O)[O-])c1 , what is its reported GFP response relative to DMSO? 153

For O=C(O)Cc1sc(Nc2ccc(F)cc2)nc1-c1cccs1 , what is its reported GFP response relative to DMSO? 125

For CCOc1ccccc1NC(=O)c1nc(S(=O)(=O)Cc2ccccc2)ncc1Cl , what is its reported GFP response relative to DMSO? 96

For Cc1ccc(C(=O)OCC(=O)Nc2ccccc2Sc2ccccc2)cc1C , what is its reported GFP response relative to DMSO? 99.7

For CCOc1ccccc1N1C(=O)CC(Sc2ncccc2C(=O)O)C1=O (stereo not drawn) , what is its reported GFP response relative to DMSO? 106

For CCOC(=O)CCS(=O)(=O)c1nc(-c2ccccc2)cc(C(F)(F)F)n1 , what is its reported GFP response relative to DMSO? 153

For O=C1C=CC(=O)N1c1ccc(N2CCCCC2)cc1 , what is its reported GFP response relative to DMSO? 99.2

For COc1ccccc1NC(=O)c1ccc(N)cc1 , what is its reported GFP response relative to DMSO? 102

For CCn1cc([N+](=O)[O-])c(C(=O)Nc2nc(-c3ccc(C)c(C)c3)c(C)s2)n1 , what is its reported GFP response relative to DMSO? 97.6

For CCC(C)(C)NC(=O)C(c1cccs1)N(CC1CCCO1)C(=O)Cn1nnc2ccccc21 (stereo not drawn) , what is its reported GFP response relative to DMSO? 96

For O=C1CC(Sc2nnc(-c3ccccc3)o2)C(=O)N1c1ccccc1 (stereo not drawn) , what is its reported GFP response relative to DMSO? 105

For COc1cc(N2C(=O)C=CC2=O)c(OC)cc1Cl , what is its reported GFP response relative to DMSO? 211

For CCOc1ccc(Nc2nc(N(C)c3ccccc3)nc(N)c2[N+](=O)[O-])cc1 , what is its reported GFP response relative to DMSO? 95

For O=C1C2C3C=CC(CO)(O3)C2C(=O)N1c1ccccc1-c1ccccc1 (stereo not drawn) , what is its reported GFP response relative to DMSO? 128
